Test system: Monocotyledonous and dicotyledonous test plants
Assay: Herbicidal action after emergence of the plants (post-emergence herbicidal action), Example B2
Assay type: in vivo
Conditions: postemergent application, 125 g/ha, CHEAL, 2- to 3-leaf stage, evaluated after 2-3 weeks; 100%=total damage
quantity_measured: herbicidal damage, CHEAL (%)
API: value field is a number in %; no unit string.

Please review the following examples before continuing.
molecule: O=C(C1=C(O)C2CCC(C2)C1=O)c1ccc(C(F)(F)F)n2cnnc12 (stereo not shown) [Compound 1.1]
measurement_target: Monocotyledonous and dicotyledonous test plants
herbicidal damage, CHEAL, %: 80

molecule: O=C1CCCC(O)=C1C(=O)c1ccc(C(F)(F)F)n2c(C3CC3)nnc12 [Compound 3.7]
measurement_target: Monocotyledonous and dicotyledonous test plants
herbicidal damage, CHEAL, %: 70

molecule: CCOc1nnc2c(C(=O)C3=C(O)C4CCC(C4)C3=O)ccc(C(F)(F)F)n12 (stereo not shown) [Compound 1.211]
measurement_target: Monocotyledonous and dicotyledonous test plants
herbicidal damage, CHEAL, %: 80

Below: the item to evaluate.
// sample CCSc1nnc2c(C(=O)C3=C(O)C4CCC(C4)C3=O)ccc(C(F)(F)F)n12 (stereo not shown) [Compound 1.212] , its herbicidal damage, CHEAL was 80
